biological target: c-Met (Homo sapiens); construct: Kinases are expressed as either kinase domains or full length constructs; made in house; test: Kinase inhibition assay (33P transfer), c-Met; type: biochemical; conditions: Table 2, kinase inhibition class; read-out: Met-1
pIC50: −log10 of the molar value.
Parameter: pIC50. Scope: all listed entries.

According to the records, this compound COc1cc(C)c(Nc2ncnc(-n3c(N)nc4ccccc43)n2)cc1OC displays pIC50 of 5.03 to 5.20

According to the records, this compound O=c1[nH]c2ccccc2n1-c1ncnc(Nc2ccccc2)n1 displays pIC50 of < 4.83

---

pIC50: −log10 of the molar value.
As an illustration, consider measured pIC50 for molecules on UniProt P06241.
Sequence (P06241 whole entry, species assumed): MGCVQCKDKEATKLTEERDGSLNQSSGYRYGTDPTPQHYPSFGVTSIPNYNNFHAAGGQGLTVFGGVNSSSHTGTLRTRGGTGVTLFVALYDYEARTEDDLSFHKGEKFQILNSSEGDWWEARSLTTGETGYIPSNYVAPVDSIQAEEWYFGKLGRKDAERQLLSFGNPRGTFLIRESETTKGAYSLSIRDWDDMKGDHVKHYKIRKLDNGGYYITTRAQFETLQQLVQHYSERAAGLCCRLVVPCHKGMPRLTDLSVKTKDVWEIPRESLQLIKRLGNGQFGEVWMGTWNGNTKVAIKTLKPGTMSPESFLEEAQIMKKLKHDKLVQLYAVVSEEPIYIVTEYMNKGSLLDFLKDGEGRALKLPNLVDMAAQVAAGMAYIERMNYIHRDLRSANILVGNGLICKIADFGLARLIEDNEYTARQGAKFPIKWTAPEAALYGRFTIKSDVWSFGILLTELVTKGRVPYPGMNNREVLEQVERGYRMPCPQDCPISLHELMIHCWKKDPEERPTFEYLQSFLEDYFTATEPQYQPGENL

Look over these answered cases.
[[record]]
molecule = "COc1cc(Nc2ncnc(Nc3ccc(N(C)C)cc3)n2)cc(OC)c1OC [Compound 27]"
testtarget = "UniProt P06241"
endpoint = "pIC50"
measuredvalue = "5.22 to 6.00"

[[record]]
molecule = "COc1cc(Nc2ncnc(-n3c(NC(C)=O)nc4ccccc43)n2)cc(OC)c1OC [Compound 334]"
testtarget = "UniProt P06241"
endpoint = "pIC50"
measuredvalue = "< 4.99"

[[record]]
molecule = "COc1cc(Nc2ncnc(-n3c(NCc4ccccn4)nc4ccccc43)n2)cc(OC)c1OCCN1CCOCC1 [Compound 519]"
testtarget = "UniProt P06241"
endpoint = "pIC50"
measuredvalue = "< 5.11"

[[record]]
molecule = "COc1cc(Nc2ncnc(-n3c(NCc4cccc(Cl)c4)nc4ccccc43)n2)cc(OC)c1OC [Compound 949]"
testtarget = "UniProt P06241"
endpoint = "pIC50"
measuredvalue = "< 5.06"

[[record]]
molecule = "COc1cc(Nc2ncnc(Nc3ccc(C)c(O)c3)n2)cc(OC)c1OC [Compound 83]"
testtarget = "UniProt P06241"
endpoint = "pIC50"
measuredvalue = "> 5.98"

[[record]]
molecule = "COc1cc(Nc2ncnc(-n3cc(CC(N)=O)c4ccccc43)n2)cc(OC)c1OC [Compound 353]"
testtarget = "UniProt P06241"
endpoint = "pIC50"
measuredvalue = "4.98 to 5.09"


Record CCOC(=O)C(Nc1nc2ccccc2n1-c1ncnc(Nc2cc(OC)c(OC)c(OC)c2)n1)c1ccccc1 (centres unmarked) [Compound 585] / UniProt P06241, pIC50 recorded as < 5.09

Record COc1cc(Nc2ncnc(Nc3ccc(OCc4ccccc4)cc3)n2)cc(OC)c1 [Compound 156] / UniProt P06241, pIC50 recorded as 5.09 to 5.25

Record COc1cc(Nc2ncnc(Nc3cnc4ccccc4c3)n2)cc(OC)c1OC [Compound 99] / UniProt P06241, pIC50 recorded as 5.23 to 6.00

Record COc1cc(Nc2ncnc(N(C/C=C/c3ccccc3)c3ccc(Cl)cc3)n2)cc(OC)c1OC [Compound 56] / UniProt P06241, pIC50 recorded as < 5.05

Record CCN(CC)CCOc1cc(Nc2ncnc(Nc3cc(OC)c(OC)c(OC)c3)n2)ccc1OC [Compound 600] / UniProt P06241, pIC50 recorded as 5.32 to 6.10

Record COc1cc(Nc2ncnc(N(C)c3ccc(Cl)cc3)n2)cc(OC)c1OC [Compound 616] / UniProt P06241, pIC50 recorded as 5.22 to 6.00

Record CCN(CC)CCOc1ccc(Nc2ncnc(-n3c(N)nc4ccccc43)n2)cc1OC [Compound 652] / UniProt P06241, pIC50 recorded as < 5.00

Record COCCOc1ccc(Nc2ncnc(Nc3cc(-c4ccco4)n[nH]3)n2)cc1OCCOC [Compound 328] / UniProt P06241, pIC50 recorded as 5.13 to 5.29

Record COc1cc(Nc2ncnc(-n3c(NCc4cccc(F)c4)nc4ccccc43)n2)cc(OC)c1OC [Compound 513] / UniProt P06241, pIC50 recorded as 5.05 to 5.16

Record COc1ccc(Nc2nc3ccccc3n2-c2ncnc(Nc3cc(OC)c(OC)c(OC)c3)n2)cc1 [Compound 397] / UniProt P06241, pIC50 recorded as < 5.05

Record COc1ccc(Nc2ncnc(N(C/C=C/c3ccccc3)c3ccc(Cl)cc3)n2)cc1OC [Compound 974] / UniProt P06241, pIC50 recorded as < 5.02

---

Target: Lck (Homo sapiens, UniProt P06239)
Construct: Kinases are expressed as either kinase domains or full length constructs; made in house
Sequence (P06239 whole entry, species assumed, the tested form may be a part): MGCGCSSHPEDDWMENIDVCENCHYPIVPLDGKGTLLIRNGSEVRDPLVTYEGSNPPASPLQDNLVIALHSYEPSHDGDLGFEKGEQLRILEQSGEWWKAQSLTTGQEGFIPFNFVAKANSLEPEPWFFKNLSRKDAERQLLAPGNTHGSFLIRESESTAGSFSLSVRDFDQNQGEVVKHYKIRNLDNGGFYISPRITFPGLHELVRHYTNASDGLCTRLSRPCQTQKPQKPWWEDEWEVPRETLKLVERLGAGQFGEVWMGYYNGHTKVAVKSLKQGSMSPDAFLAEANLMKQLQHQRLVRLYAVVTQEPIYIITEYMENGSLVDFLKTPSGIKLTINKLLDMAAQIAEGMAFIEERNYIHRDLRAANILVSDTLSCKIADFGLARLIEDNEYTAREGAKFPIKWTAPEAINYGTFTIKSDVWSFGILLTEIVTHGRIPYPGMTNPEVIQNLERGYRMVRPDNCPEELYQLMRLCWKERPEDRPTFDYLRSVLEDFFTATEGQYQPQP
Test: Kinase inhibition assay (33P transfer), Lck
Assay type: biochemical
Conditions: Table 3; read-out: Lck-1
Description: The inhibitor compounds described herein are screened in the following manner. […] Kinases are expressed as either kinase domains or full length constructs fused to glutathione S-transferase (GST) or polyHistidine tagged fusion proteins in either E. colior Baculovirus-High Five expression systems. […]
Parameter: IC50. Scope: all listed entries.

Look over these answered cases.
[[record]]
testsmiles = "COc1cc(Nc2ncnc(Nc3ccc(-c4ccccc4)cc3)n2)cc(OC)c1OC"
testtarget = "Lck (Homo sapiens, UniProt P06239)"
endpoint = "IC50"
measuredvalue = "> 10.5 µM"

[[record]]
testsmiles = "COc1cc(Nc2ncnc(Nc3nnc(-c4ccccc4)[nH]3)n2)cc(OC)c1OC"
testtarget = "Lck (Homo sapiens, UniProt P06239)"
endpoint = "IC50"
measuredvalue = "> 10.7 µM"

[[record]]
testsmiles = "COCCOc1ccc(Nc2ncnc(-n3c(N)nc4ccccc43)n2)cc1OCCOC"
testtarget = "Lck (Homo sapiens, UniProt P06239)"
endpoint = "IC50"
measuredvalue = "> 9.97 µM"


// moving on: another record for IC50
According to the records, this molecule COc1ccc(Nc2ncnc(Nc3ccc(N(C)C)cc3)n2)cc1OC displays IC50 of > 12.3 µM

---

target: EGFR (Homo sapiens, UniProt P00533); construct: Kinases are expressed as either kinase domains or full length constructs; made in house; test: Kinase inhibition assay (33P transfer), EGFR; type: biochemical; details: Table 2, kinase inhibition class; read-out: EGFR-1
Sequence (P00533 25-1210, species assumed): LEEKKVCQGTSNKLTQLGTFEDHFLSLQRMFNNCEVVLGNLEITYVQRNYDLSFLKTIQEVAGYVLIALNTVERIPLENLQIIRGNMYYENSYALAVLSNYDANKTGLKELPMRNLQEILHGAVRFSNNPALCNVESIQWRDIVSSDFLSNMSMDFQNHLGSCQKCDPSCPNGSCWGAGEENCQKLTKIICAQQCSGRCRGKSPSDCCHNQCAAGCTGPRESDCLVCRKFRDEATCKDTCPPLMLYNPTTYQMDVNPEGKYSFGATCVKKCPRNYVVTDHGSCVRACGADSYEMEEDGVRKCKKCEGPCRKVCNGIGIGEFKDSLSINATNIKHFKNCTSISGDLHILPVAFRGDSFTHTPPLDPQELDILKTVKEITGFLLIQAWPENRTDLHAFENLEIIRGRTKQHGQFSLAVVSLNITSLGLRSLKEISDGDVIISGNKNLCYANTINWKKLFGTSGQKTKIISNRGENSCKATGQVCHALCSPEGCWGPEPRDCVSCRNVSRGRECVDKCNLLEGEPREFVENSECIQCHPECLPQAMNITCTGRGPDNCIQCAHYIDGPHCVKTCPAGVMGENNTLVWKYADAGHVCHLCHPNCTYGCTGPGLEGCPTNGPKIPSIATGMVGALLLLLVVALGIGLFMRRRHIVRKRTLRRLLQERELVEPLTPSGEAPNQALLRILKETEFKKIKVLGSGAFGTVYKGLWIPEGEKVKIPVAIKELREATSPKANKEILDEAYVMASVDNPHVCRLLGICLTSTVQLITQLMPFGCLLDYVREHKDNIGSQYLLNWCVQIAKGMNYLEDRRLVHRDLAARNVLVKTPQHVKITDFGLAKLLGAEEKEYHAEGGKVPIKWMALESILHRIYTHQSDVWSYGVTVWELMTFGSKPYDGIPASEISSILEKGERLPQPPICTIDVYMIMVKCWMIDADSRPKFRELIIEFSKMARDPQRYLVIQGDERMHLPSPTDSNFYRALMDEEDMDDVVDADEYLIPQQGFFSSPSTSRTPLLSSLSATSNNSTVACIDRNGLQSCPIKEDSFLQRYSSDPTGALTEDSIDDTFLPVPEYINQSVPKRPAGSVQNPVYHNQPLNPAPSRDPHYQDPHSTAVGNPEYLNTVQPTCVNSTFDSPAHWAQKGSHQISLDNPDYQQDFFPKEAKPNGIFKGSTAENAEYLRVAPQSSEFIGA
endpoint: IC50

Look over these answered cases.
[[record]]
compound = "COc1ccc(-c2cc(Nc3ncnc(Nc4ccc(CC(N)=O)cc4)n3)[nH]n2)cc1 [Compound 576]"
endpoint = "IC50"
measuredvalue = "0.961 to 5.76 µM"

[[record]]
compound = "COc1ccc(Nc2ncnc(-n3c(=O)[nH]c4ccccc43)n2)cc1OC [Compound 494]"
endpoint = "IC50"
measuredvalue = "6.59 to 9.61 µM"

[[record]]
compound = "COc1cc(Nc2ncnc(-c3ccnc(NCCCN)c3)n2)cc(OC)c1OC [Compound 45]"
endpoint = "IC50"
measuredvalue = "> 10.9 µM"


// moving on: another record for IC50
According to the records, this compound CCOC(=O)N1CCC(Nc2ncnc(N3CCCc4cc(C)ccc43)n2)CC1 [Compound 765] displays IC50 of > 11.3 µM

---

target: c-Met (Homo sapiens, UniProt P08581); construct: Kinases are expressed as either kinase domains or full length constructs; made in house; experiment: Kinase inhibition assay (33P transfer), c-Met; format: biochemical; conditions: Table 2, kinase inhibition class; read-out: Met-1
Sequence (P08581 25-1390): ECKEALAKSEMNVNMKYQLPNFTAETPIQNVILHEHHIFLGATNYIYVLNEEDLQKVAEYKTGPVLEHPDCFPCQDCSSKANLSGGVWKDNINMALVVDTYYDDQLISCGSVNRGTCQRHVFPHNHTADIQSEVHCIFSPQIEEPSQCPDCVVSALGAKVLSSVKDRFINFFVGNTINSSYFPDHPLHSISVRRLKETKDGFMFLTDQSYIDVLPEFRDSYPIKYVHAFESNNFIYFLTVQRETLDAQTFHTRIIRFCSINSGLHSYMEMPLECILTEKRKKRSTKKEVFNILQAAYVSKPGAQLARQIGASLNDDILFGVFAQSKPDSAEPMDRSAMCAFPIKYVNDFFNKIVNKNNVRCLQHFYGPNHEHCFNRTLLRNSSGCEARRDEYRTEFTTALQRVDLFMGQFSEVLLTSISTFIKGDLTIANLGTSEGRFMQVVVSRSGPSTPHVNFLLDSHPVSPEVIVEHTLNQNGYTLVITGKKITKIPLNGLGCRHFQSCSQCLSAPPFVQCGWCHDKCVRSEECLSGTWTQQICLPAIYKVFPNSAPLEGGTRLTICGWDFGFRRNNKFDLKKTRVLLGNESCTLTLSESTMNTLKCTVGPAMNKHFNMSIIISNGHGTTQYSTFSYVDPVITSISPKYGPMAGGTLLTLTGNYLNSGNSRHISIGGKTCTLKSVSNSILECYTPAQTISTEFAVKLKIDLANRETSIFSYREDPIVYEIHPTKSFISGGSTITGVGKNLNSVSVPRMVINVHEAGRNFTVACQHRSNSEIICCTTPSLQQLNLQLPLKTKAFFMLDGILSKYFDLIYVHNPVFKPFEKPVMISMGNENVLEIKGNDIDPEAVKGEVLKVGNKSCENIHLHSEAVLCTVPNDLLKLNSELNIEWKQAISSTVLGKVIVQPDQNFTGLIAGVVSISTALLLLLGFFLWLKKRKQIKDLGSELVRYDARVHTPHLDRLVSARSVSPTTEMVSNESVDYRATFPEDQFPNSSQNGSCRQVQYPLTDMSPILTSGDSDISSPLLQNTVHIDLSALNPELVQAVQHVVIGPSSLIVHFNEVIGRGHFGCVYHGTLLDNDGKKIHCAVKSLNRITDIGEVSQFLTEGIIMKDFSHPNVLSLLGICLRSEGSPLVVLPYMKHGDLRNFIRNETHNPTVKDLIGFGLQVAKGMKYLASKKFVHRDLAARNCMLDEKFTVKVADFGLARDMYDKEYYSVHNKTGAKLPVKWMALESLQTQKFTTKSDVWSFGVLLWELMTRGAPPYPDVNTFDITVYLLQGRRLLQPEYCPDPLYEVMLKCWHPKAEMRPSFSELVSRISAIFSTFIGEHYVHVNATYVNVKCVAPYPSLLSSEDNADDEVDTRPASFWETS
endpoint: IC50

[[record]]
testsmiles = "Cc1cccc(Nc2ncnc(N3CCCc4ccc(C(F)(F)F)cc43)n2)c1"
measuredvalue = "9.08 to 11.7 µM"

[[record]]
testsmiles = "Nc1nc2ccccc2n1-c1ncnc(Nc2cccc(-c3cnco3)c2)n1"
measuredvalue = "1.08 to 6.48 µM"

[[record]]
testsmiles = "CC(C)(C)OC(=O)NCc1cccc(Nc2ncnc(Nc3cc(C(C)(C)C)n[nH]3)n2)c1"
measuredvalue = "> 10.3 µM"

[[record]]
testsmiles = "COc1cc(Nc2ncnc(-n3c(NCc4ccccn4)nc4ccccc43)n2)cc(OC)c1OCCN1CCOCC1"
measuredvalue = "> 7.71 µM"


// moving on: another record for IC50
According to the records, this molecule COc1cc(Nc2ncnc(-n3ccc4ccc(Cl)cc43)n2)cc(OC)c1OC displays IC50 of 5.83 to 8.5 µM

---

molecular target: AKT (Homo sapiens); construct: Kinases are expressed as either kinase domains or full length constructs; made in house; experiment: Kinase inhibition assay (33P transfer), AKT; type: biochemical; conditions: Table 2, class symbols A-E; read-out: AKT3-1
Sequence (Q9Y243 whole entry, the tested form may be a part): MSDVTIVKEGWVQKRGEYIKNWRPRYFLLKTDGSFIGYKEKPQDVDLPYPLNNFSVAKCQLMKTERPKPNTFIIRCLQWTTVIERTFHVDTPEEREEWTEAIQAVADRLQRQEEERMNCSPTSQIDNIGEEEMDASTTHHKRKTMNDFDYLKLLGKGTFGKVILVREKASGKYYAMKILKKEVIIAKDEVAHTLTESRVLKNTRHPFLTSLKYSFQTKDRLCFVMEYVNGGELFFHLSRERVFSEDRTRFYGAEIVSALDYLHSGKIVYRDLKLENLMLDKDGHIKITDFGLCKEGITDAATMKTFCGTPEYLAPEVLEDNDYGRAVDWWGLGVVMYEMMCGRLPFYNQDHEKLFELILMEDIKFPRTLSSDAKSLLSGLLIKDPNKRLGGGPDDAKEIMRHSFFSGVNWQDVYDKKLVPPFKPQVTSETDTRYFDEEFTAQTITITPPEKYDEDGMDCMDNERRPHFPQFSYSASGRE
pIC50: −log10 of the molar value.
Parameter: pIC50. Scope: all listed entries.

[[record]]
testsmiles = "C#Cc1cccc(Nc2ncnc(Nc3cc(-c4ccccc4)n[nH]3)n2)c1"
testtarget = "AKT (Homo sapiens)"
measuredvalue = "< 4.90"


According to the records, this molecule CN(c1ccc2c(cnn2Cc2ccccc2)c1)c1ncnc(Nc2cccc(Cn3ccnn3)c2)n1 displays pIC50 of < 5.04

According to the records, this molecule COC(=O)c1ccc(-c2cc(Nc3ncnc(Nc4cccc(S(=O)(=O)O)c4)n3)[nH]n2)cc1 displays pIC50 of 5.13 to 5.29

According to the records, this molecule O=C(O)CCNC(=O)c1ccc(Nc2ncnc(Nc3cc(-c4ccco4)[nH]n3)n2)cc1 displays pIC50 of 4.98 to 5.09

According to the records, this molecule COc1ccc(Nc2ncnc(Nc3ccc4c(cnn4Cc4ccccc4)c3)n2)cc1 displays pIC50 of < 4.97

According to the records, this molecule CN(c1cccc(Cl)c1)c1ncnc(Nc2cccc(OC(F)(F)F)c2)n1 displays pIC50 of < 4.94

According to the records, this molecule COc1cc(Nc2ncnc(-c3cccnc3NC(C)C)n2)ccc1NC(=O)CCCN1CCNCC1 displays pIC50 of 5.05 to 5.16

According to the records, this molecule COc1cc(Nc2ncnc(-c3cccnc3Nc3ccc(Oc4ccccc4)cc3)n2)cc(OC)c1OC displays pIC50 of < 5.06
